# System: SK-MEL-5 melanoma
# EXPERIMENT_NOTES: NCI tumour cell line growth inhibition, 48 h; in the data active = GI50 below about 0.43 µM; inactive = the rest
Lab note: assign the record to one of active, inactive

// known answers, use as guide
[
  {
    "COMPOUND": "CCOC(=O)c1ccc2c(c1)nc(-c1ccc(Cl)cc1)n2-c1cc(C(C)(C)C)[nH]n1",
    "LABEL_CLASS": "inactive"
  },
  {
    "COMPOUND": "COc1ccc(-c2nn(C(=O)NCCN(C)C)cc2-c2ccncc2)cc1Cl",
    "LABEL_CLASS": "inactive"
  },
  {
    "COMPOUND": "OCc1cn(Cc2ccc(Cl)cc2)c2ccccc12",
    "LABEL_CLASS": "inactive"
  },
  {
    "COMPOUND": "COc1cccc(C(=O)c2sc(Nc3ccc(N4CCN(C(C)C)CC4)cc3)nc2N)c1",
    "LABEL_CLASS": "inactive"
  },
  {
    "COMPOUND": "CS(=O)(=O)c1ccc(Oc2cc(F)cc(C#N)c2)c2c1[C@H](O)[C@H](F)[C@H]2F",
    "LABEL_CLASS": "inactive"
  },
  {
    "COMPOUND": "COc1cc2c(cc1OC)[C@@H]1C(=O)c3cc4c(cc3[C@@H]1N(CCN(C)C)C2=O)OCO4",
    "LABEL_CLASS": "active"
  },
  {
    "COMPOUND": "O=C(Cc1csc2nc(-c3ccc(Br)cc3)cn12)N/N=C/c1ccccc1",
    "LABEL_CLASS": "inactive"
  },
  {
    "COMPOUND": "Cc1nc2ccc(Nc3nc(Cl)nc(Nc4ccc(F)cc4)n3)cc2n1Cc1ccccc1",
    "LABEL_CLASS": "inactive"
  }
]

// switching to the query compound
Inquiry: Which result was noted for this compound in the test: O=C(CI)OCC(COC(=O)CI)OC(=O)CI
Reply text: inactive

---

# System: NCI-H23 lung
Lab note: assign the record to one of 1.0 = active, 0.0 = inactive

// known answers, use as guide
[
  {
    "SMILES_ENTRY": "C/C(=N\\NC(=O)c1ccc(C(C)(C)C)cc1)c1ccc(O)cc1O",
    "LABEL_CLASS": 0.0
  },
  {
    "SMILES_ENTRY": "CCCCCCCCCCCCCCCCSC(=NCC)NCC",
    "LABEL_CLASS": 0.0
  },
  {
    "SMILES_ENTRY": "O=C1c2ccccc2-c2c1c1ccc([N+](=O)[O-])cc1c(=O)n2CCCN1CCOCC1",
    "LABEL_CLASS": 1.0
  }
]

Inquiry: Which result was noted for this molecule in the test: COc1ccc(-c2nn(C(=O)NCCN(C)C)cc2-c2ccncc2)cc1Cl
Reply text: 0.0

---

# Test system: HCT-116 colon
# EXPERIMENT_NOTES: NCI tumour cell line growth inhibition, 48 h
MEASURED_PARAMETER: TGI

Recorded results for 5 compounds are shown here.
[
  {
    "COMPOUND": "CCN(Cc1ccccc1F)c1ccc(CO)c(Cl)c1",
    "TGI": "11.3 µM"
  },
  {
    "COMPOUND": "CC12CCC(=O)N1c1cnccc1N2 (stereo not drawn)",
    "TGI": "> 100 µM"
  },
  {
    "COMPOUND": "O=C(c1cc(Cl)ccc1Cl)N1CCN(c2ccc(Cl)c(Cl)c2)CC1",
    "TGI": "> 100 µM"
  },
  {
    "COMPOUND": "S=C1C(=Nc2ccccc2)N(C2CCCCC2)C(=NC2CCCCC2)N1c1ccccc1",
    "TGI": "> 100 µM"
  },
  {
    "COMPOUND": "Cc1csc(-n2nc(C)cc2C)n1",
    "TGI": "> 100 µM"
  }
]

Inquiry: Could you share which TGI value was measured for N#CC12CC3=C(N=C1NC1=C(CCc4ccccc41)C2)c1ccccc1CC3 (stereo not drawn) ?
Reply text: 21.7 µM

Inquiry: Could you share which TGI value was measured for CN(C)C(=S)OC(Cn1cncn1)c1ccc(Cl)cc1Cl (stereo not drawn) ?
Reply text: > 100 µM

Inquiry: Could you share which TGI value was measured for OC[C@@H]1CC#C/C=C\C#CC[C@@H]1CO ?
Reply text: > 100 µM

---

Listing of entries alongside the reported TGI.
# System: T-47D breast
# EXPERIMENT_NOTES: NCI tumour cell line growth inhibition, 48 h

Recorded results for 3 compounds are shown here.
[
  {
    "COMPOUND": "O=CC12c3ccccc3C(c3ccccc31)C1C(=O)NC(=O)C12 (stereo unspecified)",
    "OBSERVED_RESULT": "> 100 µM"
  },
  {
    "COMPOUND": "NNC(=O)c1n[nH]n(N)c1=S",
    "OBSERVED_RESULT": "> 100 µM"
  },
  {
    "COMPOUND": "S=C(S)N1CCOCC1",
    "OBSERVED_RESULT": "> 100 µM"
  }
]

Inquiry: State its TGI on T-47D breast: O=C(Nn1cc(F)c(=O)[nH]c1=O)C12CC3CC(CC(C3)C1)C2
Reply text: > 80.2 µM

Inquiry: State its TGI on T-47D breast: CCCCCCCCCCCCCCCCSC(=NCC)NCC
Reply text: 3.13 µM

Inquiry: State its TGI on T-47D breast: O=C(CC(C(=O)c1ccc(F)cc1)c1ccsc1)c1cccs1 (stereo unspecified)
Reply text: > 100 µM

Inquiry: State its TGI on T-47D breast: O=C(NCc1ccccc1)c1cc2ccccc2oc1=Nc1ccccc1F
Reply text: > 100 µM

Inquiry: State its TGI on T-47D breast: O=C1c2ccccc2-c2c1c1ccc([N+](=O)[O-])cc1c(=O)n2CCCN1CCOCC1
Reply text: > 100 µM

Inquiry: State its TGI on T-47D breast: CN(C)c1ccc(/C=C2\C[C@H]3[C@@H]4CCc5cc(OCCN6CCCC6)ccc5[C@H]4CC[C@]3(C)[C@H]2O)cc1
Reply text: 47.5 µM

Inquiry: State its TGI on T-47D breast: C/C(=N\NC(=O)c1ccc(C(C)(C)C)cc1)c1ccc(O)cc1O
Reply text: > 100 µM

Inquiry: State its TGI on T-47D breast: Cc1ccc(/C=C2\COc3ccc(O)c(O)c3C2=O)cc1
Reply text: 6.94 µM

---

# Test system: HCC-2998 colon
# EXPERIMENT_NOTES: NCI tumour cell line growth inhibition, 48 h
MEASURED_PARAMETER: log10(TGI) (log10 of the value in µM)
Please interpret these as log10 of TGI where TGI is in µM.

Inquiry: Could you share which log10(TGI) value was measured for COc1cc2c(cc1OC)[C@@H]1C(=O)c3cc4c(cc3[C@@H]1N(CCN(C)C)C2=O)OCO4 ?
Reply text: 0.99

Inquiry: Could you share which log10(TGI) value was measured for CCCCCCCCCCCCCCCCSC(=NCC)NCC ?
Reply text: 0.52

Inquiry: Could you share which log10(TGI) value was measured for COc1cc(/C=C2\CCc3ccccc3C2=O)ccc1O ?
Reply text: 1.53

Inquiry: Could you share which log10(TGI) value was measured for OCCCc1n(Cc2ccc3ccccc3c2)c2ccccc2[n+]1Cc1ccc2ccccc2c1 ?
Reply text: 0.51

Inquiry: Could you share which log10(TGI) value was measured for O=c1ssc2c1Nc1c(ssc1=O)S2 ?
Reply text: 1.47

Inquiry: Could you share which log10(TGI) value was measured for O=C(/C=C/c1ccccc1F)c1ccc([N+](=O)[O-])cc1 ?
Reply text: 1.48

---

Listing of entries alongside the reported TGI.
# System: HS 578T breast
# EXPERIMENT_NOTES: NCI tumour cell line growth inhibition, 48 h
Please state the figure in µM; there is no need to write the unit.

[
  {
    "COMPOUND": "CCOC(=O)c1ccc2c(c1)nc(-c1ccc(Cl)cc1)n2-c1cc(C(C)(C)C)[nH]n1",
    "TARGET_OF_ASSAY": "HS 578T breast",
    "TGI, µM": 8.57
  },
  {
    "COMPOUND": "O=C1c2ccccc2C(=O)c2c(Nc3ccc(CCO)cc3)ccc(O)c21",
    "TARGET_OF_ASSAY": "HS 578T breast",
    "TGI, µM": 48
  },
  {
    "COMPOUND": "OC1c2c(ccc3c2CCC3)CC12Cc1ccccc1C2 (stereo not given)",
    "TARGET_OF_ASSAY": "HS 578T breast",
    "TGI, µM": 35.5
  },
  {
    "COMPOUND": "O=C1/C(=N\\n2c(-c3ccncc3)n[nH]c2=S)c2cc(Cl)ccc2N1CN1CCCCC1",
    "TARGET_OF_ASSAY": "HS 578T breast",
    "TGI, µM": 93.2
  },
  {
    "COMPOUND": "CS(=O)(=O)Nc1ccc(Nc2c3ccccc3nc3cc([N+](=O)[O-])ccc23)cc1",
    "TARGET_OF_ASSAY": "HS 578T breast",
    "TGI, µM": 13.4
  }
]

Inquiry: Could you share which TGI value was measured for O=C(CNC(=O)c1ccccc1)Oc1c(Cl)c(Cl)c(Cl)c(Cl)c1Cl ?
Reply text: 67.6

Inquiry: Could you share which TGI value was measured for COc1ccc(OC)c(C(=O)c2cccc(C(=O)c3cc(OC)ccc3OC)n2)c1 ?
Reply text: 84.5
